Tested on: U251 CNS
I would appreciate it if you answered using one of these outcomes: active, inactive

Example entries begin here.
c1cc(N[C@@H]2CCNC2)nc(-c2cnc3ccc(-c4cn[nH]c4)cn23)c1: inactive
C[C@@]1([C@H](OC(=O)c2ccccc2)C(N)=O)CO1: inactive
CCOCC1(COCC)CCC(c2[nH]ncc2CN(C)CCNC)CC1: inactive
Oc1ccc(Cl)cc1C(c1cc(Cl)ccc1O)C(Cl)(Cl)Cl: inactive
NC(=O)c1ccc2c(c1)-c1nc-2nc2[n-]c(nc3nc(nc4[n-]c(n1)c1ccc(C(N)=O)cc41)-c1ccc(C(N)=O)cc1-3)c1ccc(C(N)=O)cc21.[Co+2]: inactive
O=C1Nc2ccc(Br)cc2C12CC(c1ccccc1)=NN2 (stereo not drawn): inactive

What did the test return for "O=C1Nc2ccc(Cl)cc2/C1=C\c1c(-c2ccc(Cl)cc2)nc2sc(C3CC3)nn12" ?
inactive

Each compound tested received a call. Report the one for "CC(C)(C)c1cc(C(=O)Nc2ccccc2C(=O)NCCN)cc(C(C)(C)C)c1" .
inactive

Look up the recorded call for "CC(=O)Nc1ccc(C(=O)CCl)cc1" in this test.
inactive

Please state the recorded outcome for this compound: "Clc1nccc2c(-c3csc(-c4c[nH]c5ccc(Br)cc45)n3)c[nH]c12"
inactive

Could you please tell me the result logged for COC1(CC[C@@H](C)COC2OC(CO)C(O)C(O)C2O)O[C@H]2C[C@H]3[C@@H]4CC=C5C[C@@H](OC6OC(CO)C(OC7OC(C)C(O)C(O)C7O)C(O)C6OC6OC(C)C(O)C(O)C6O)CC[C@]5(C)[C@H]4CC[C@]3(C)[C@H]2[C@@H]1C (stereo partly drawn) in this assay?
inactive

Can you look up the reported call for "NC(N)=N/N=C/c1c(-c2ccsc2)nc2n1CCS2" for me?
inactive

###

Tested on: SK-MEL-28 melanoma
EXPERIMENT NOTES: NCI tumour cell line growth inhibition, 48 h
This section presents compounds with their documented GI50 values.

Worked examples follow.
O=C1NC(=NCc2ccccc2Cl)S/C1=C\c1ccc2ncccc2c1: > 25 µM
CCOC(=O)[C@@H](C)C[C@H](Cc1ccccc1)NC(=O)c1csc([C@@H](C[C@H](C(C)C)N(C)C(=O)[C@@H](NC(=O)[C@H]2CCCCN2C)C(C)(C)CC)OC(C)=O)n1: 1.2 µM
COc1cc([N+](=O)[O-])c(OC)cc1-c1nc2sc(C)c(C)n2c1/C(N)=N/C(=N)N: > 100 µM
CCOC(=O)c1c(-c2ccccc2)[n+](=O)c2cc(Cl)c(Cl)cc2n1[O-]: 13.7 µM

Read the entry "CSc1ccc(C2=C(c3ccccc3)C(=O)OC2)cc1" and write its reported GI50.
6.69 µM

###

Tested on: NCI-H23 lung
EXPERIMENT NOTES: NCI tumour cell line growth inhibition, 48 h
QUANTITY MEASURED: TGI (µM)
Just the number please, in µM, no unit attached.

// known answers, use as guide
COc1ccc(C(O)c2cc3c(N)c(C(=O)Nc4ccc(Cl)cc4)sc3nc2C)cc1 (configuration not stated): 52.5
CCOC(=O)CSc1cc(Cl)c(C)cc1S(=O)(=O)/N=C(/N=C/c1ccc([N+](=O)[O-])s1)NNC: 37.2
COc1ccc(-c2cc(-c3ccc(Nc4nc(Nc5ccccc5)nc(Nc5ccc(Cl)cc5)n4)cc3)nc(N)n2)cc1: 25.9
COc1cc(/C=C/C(=O)c2cccc(-n3cc(-c4cc(OC)c(OC)c(OC)c4)[nH]c3=O)c2)cc(OC)c1OC: 4.68
N#CCCn1[nH]c(=O)c(Cl)c(Cl)c1=O: 29.3
CCN1CCN(c2nc(C)cc(N(CCCNc3ccnc4cc(Cl)ccc34)Cc3ccc4c(c3)OCO4)n2)CC1: 10.1
COc1cc2cc(Oc3ccc(NC(=O)Nc4cc(C(F)(F)F)cc(C(F)(F)F)c4)cc3)c(C)nc2cc1OCCN1CCOCC1: 6.69
COC(=O)CCSC(=O)Nc1ccc(N=Nc2ccccc2)cc1: 92

Kindly review the next compound as well.
Check the records and state TGI for "O=C(Nc1ccc([N+](=O)[O-])cc1)Nn1cnnc1"
48.8

###

System: HOP-62 NSCLC
EXPERIMENT NOTES: NCI tumour cell line growth inhibition, 48 h
// values below are reported TGI

Examples with their reported TGI follow.
NC1NC=NC2C1N=CN2C1OC(CO)C2[O][Sn][O]C21 (centres undefined): > 100 µM
Cc1ccc(NC(=O)CCc2nc(=S)[nH][nH]2)cc1: > 100 µM
CCOC(=O)C(C)(NC(=O)c1ccc(NCc2ccc3nc(NC(=O)c4ccccc4)nc(NC(=O)c4ccccc4)c3c2)cc1)C(=O)OCC: 31.2 µM
CC(=O)CCCCn1c(=O)c2c(nc(Br)n2C)n(C)c1=O: > 100 µM
O=Cc1c[nH]c2c(=O)[nH]cnc12: > 100 µM
O=C1C(c2ccccc2)=C(c2ccccc2)C(c2ccc(Cc3ccc(C4=C(c5ccccc5)C(=O)C(c5ccccc5)=C4c4ccccc4)cc3)cc2)=C1c1ccccc1: > 100 µM
O=[N+]([O-])C(=C/c1ccccc1)/C(=C\c1ccccc1)[N+](=O)[O-]: 40 µM
CCCCCC(=O)N[C@@H](c1ccco1)[C@@H](O)C(=O)O[C@H]1C[C@@]2(O)[C@@H](OC(=O)c3ccccc3)[C@@H]3[C@]4(OC(C)=O)CO[C@@H]4C[C@H](O)[C@@]3(C)C(=O)[C@H](OC(C)=O)C(=C1C)C2(C)C: > 25 µM

// moving on: another record for TGI
For HOP-62 NSCLC, give TGI of the listed molecule: "Nc1nc(Nc2ccc(Cl)c(Cl)c2)nc2nc[nH]c12"
26.1 µM

###

This section presents molecules with their documented log10 of TGI values.
Tested on: MDA-MB-231 breast
EXPERIMENT NOTES: NCI tumour cell line growth inhibition, 48 h
Short version: log10 scale, TGI, µM.

Recorded log10 of TGI, per entry:
O=[N+]([O-])C(=C/c1ccccc1)/C(=C\c1ccccc1)[N+](=O)[O-]: 1.42
CSc1ccc(C2=C(c3ccccc3)C(=O)OC2)cc1: 1.32
CN1CCN(CC(=O)N(C)c2ccc(N=C(c3ccccc3)c3c(O)[nH]c4ccc(C#N)cc34)cc2)CC1: 0.80

Query log10 of TGI for "CSc1nc(=S)[nH]c2c1c(C)nn2-c1ccccc1"
1.81

Return reported log10 of TGI. Input molecule: "O=C1/C(=C/c2ccc(Cl)c(Cl)c2)CN(C(=O)C(Cl)Cl)C/C1=C\c1ccc(Cl)c(Cl)c1"
0.06

Give the reported log10 of TGI for this molecule. "O=C(Nc1ccc(Oc2ccc(F)cc2)cc1)[C@@H]1C[C@@H](Cc2ccc(F)cc2)CN1C(=O)Cn1ccnn1"
1.42

Consider the molecule O=C1Nc2ccc(Br)cc2C12CC(c1ccccc1)=NN2 (configuration not stated) and give its recorded log10 of TGI.
1.47

Item "CCOC(=O)[C@@H](C)C[C@H](Cc1ccccc1)NC(=O)c1csc([C@@H](C[C@H](C(C)C)N(C)C(=O)[C@@H](NC(=O)[C@H]2CCCCN2C)C(C)(C)CC)OC(C)=O)n1" : provide log10 of TGI
0.07

Report measured log10 of TGI; entry is "COc1ccc2nc3cc(Cl)ccc3c(NCCCNCCO)c2c1"
0.43

###

Catalogue of compounds with associated TGI
System: RPMI-8226 leukemia
EXPERIMENT NOTES: NCI tumour cell line growth inhibition, 48 h
Give your result in µM as a bare value.

COc1ccc(C(O)c2cc3c(N)c(C(=O)Nc4ccc(Cl)cc4)sc3nc2C)cc1 (stereo not drawn): 9.32
C=C1C(=O)O[C@H]2[C@H]1CC/C(COC(=O)c1cc(OC)c(OC)c(OC)c1)=C\CC[C@@]1(C)O[C@@H]21: 2.34
CC(C)(CN1C(=O)C(Cl)=C(Cl)C1=O)CN1C(=O)C(Cl)=C(Cl)C1=O: 4.96
CCCCN(CCCC)C(=O)[C@H](CC)[C@@H]1CC[C@@H](C)[C@@H]([C@H](C)[C@@H](O)[C@@H](C)C(=O)[C@H](CC)C2O[C@]3(C=C[C@@H](O)[C@]4(CC[C@@](C)([C@H]5CC[C@](O)(CC)[C@H](C)O5)O4)O3)[C@H](C)C[C@@H]2C)O1 (stereo partly drawn): 5.85
COc1cc2oc(-c3cccc(C(=O)Nc4ccc(Cl)cc4)c3)cc(=O)c2c(OC)c1OC: 3.79
COc1ccc(-c2cc(-c3ccc(Nc4nc(Nc5ccccc5)nc(Nc5ccc(Cl)cc5)n4)cc3)nc(N)n2)cc1: 20.5
CCN(CC)c1ccc2nc3ccc(N=Nc4ccc(N(C)C)cc4)cc3[n+](-c3ccccc3)c2c1: 1.35
COC(=O)C1CC2C=CC=CC(=O)C2(C)C1 (stereo not drawn): 59.5

Kindly consider the entry below.
Print RPMI-8226 leukemia TGI for "N#CCCn1[nH]c(=O)c(Cl)c(Cl)c1=O" .
37.5
